Tested on: NCI-H23
Assay: Cytotoxicity against human NCI-H23 assessed as growth inhibition at 10 uM by NCI protocol relative to control
Type: functional
Settings: read-out: GI
Here the recorded inhibition of growth at 10 µM is given for each entry.
Please give a number only; it is taken to be in %.

O=C(CN1CCN(c2cc(=O)n(-c3ccccc3)c3ccccc23)CC1)Nc1nc(-c2ccc(Cl)cc2)cs1; 50.2

Query block: # value lookup — system NCI-H23, readout inhibition of growth at 10 µM, item O=C(CN1CCN(c2cc(=O)n(-c3ccccc3)c3ccccc23)CC1)Nc1nc(-c2ccccc2)cs1
Result block: 39.2

Query block: Give inhibition of growth at 10 µM (NCI-H23) of the following molecule: O=C(CN1CCN(c2cc(=O)[nH]c3ccc(F)cc23)CC1)Nc1nc(-c2ccc(Cl)cc2)cs1
Result block: 28.8

----------
Test system: M14
Assay: Cytotoxicity against human M14 assessed as growth inhibition at 10 uM by NCI protocol relative to control
Assay type: functional
Conditions: read-out: GI
measurement.kind: inhibition of growth at 10 µM

The cases that follow already have their inhibition of growth at 10 µM on record.
COc1ccc(-c2csc(NC(=O)CN3CCN(c4cc(=O)[nH]c5ccc(F)cc45)CC3)n2)cc1; 19.2%
O=C(CN1CCN(c2cc(=O)n(-c3ccccc3)c3ccccc23)CC1)Nc1nc(-c2ccc(Cl)cc2)cs1; 50.2%
O=C(CN1CCN(c2cc(=O)n(-c3ccccc3)c3ccccc23)CC1)Nc1nc(-c2ccccc2)cs1; 26.6%

Query block: GET /values?readout=inhibition of growth at 10 µM&item= Cc1ccc(-c2csc(NC(=O)CN3CCN(c4cc(=O)[nH]c5ccc(F)cc45)CC3)n2)cc1
Result block: 27.5%

Query block: Query: inhibition of growth at 10 µM; subject: COc1ccc(-c2csc(NC(=O)CN3CCN(c4cc(=O)n(-c5ccccc5)c5ccccc45)CC3)n2)cc1
Result block: 16.1%

Query block: Quick one: inhibition of growth at 10 µM for O=C(CN1CCN(c2cc(=O)[nH]c3ccc(F)cc23)CC1)Nc1nc(-c2ccc(Cl)cc2)cs1 ?
Result block: 30.6%

----------
Test system: NCI-H23
Test: Cytotoxicity against human NCI-H23 assessed as growth inhibition at 10 uM by NCI protocol relative to control
Format: functional
Conditions: read-out: GI
Here, each record is paired with measured inhibition of growth at 10 µM data.
All answers are understood in %, so give the number only.

Look over these answered cases.
COc1ccc(-c2csc(NC(=O)CN3CCN(c4cc(=O)[nH]c5ccc(F)cc45)CC3)n2)cc1; 16.6
COc1ccc(-c2csc(NC(=O)CN3CCN(c4cc(=O)n(-c5ccccc5)c5ccccc45)CC3)n2)cc1; 35.7
Cc1ccc(-c2csc(NC(=O)CN3CCN(c4cc(=O)n(-c5ccccc5)c5ccccc45)CC3)n2)cc1; 29.7

Query block: Please give the measured inhibition of growth at 10 µM for this compound: Cc1ccc(-c2csc(NC(=O)CN3CCN(c4cc(=O)[nH]c5ccc(F)cc45)CC3)n2)cc1
Result block: 21.6

----------
Tested on: UO-31
Test: Cytotoxicity against human UO31 assessed as growth inhibition at 10 uM by NCI protocol relative to control
Format: functional
Conditions: read-out: GI
measurement.kind: inhibition of growth at 10 µM
I'd appreciate it if you included the unit after the number.

O=C(CN1CCN(c2cc(=O)n(-c3ccccc3)c3ccccc23)CC1)Nc1nc(-c2ccc(Cl)cc2)cs1; 70.5%

Query block: Give the reported inhibition of growth at 10 µM for Cc1ccc(-c2csc(NC(=O)CN3CCN(c4cc(=O)n(-c5ccccc5)c5ccccc45)CC3)n2)cc1 (system: UO-31).
Result block: 27%

Query block: API: value(readout= inhibition of growth at 10 µM, system= UO-31, query= O=C(CN1CCN(c2cc(=O)[nH]c3ccc(F)cc23)CC1)Nc1nc(-c2ccc(Cl)cc2)cs1 )
Result block: 38%

Query block: // lookup inhibition of growth at 10 µM | system=UO-31 | key= COc1ccc(-c2csc(NC(=O)CN3CCN(c4cc(=O)[nH]c5ccc(F)cc45)CC3)n2)cc1
Result block: 24.9%
